Source listed as patent US20250312352A1.

Target: GLP-1R (Homo sapiens, UniProt P43220)
Sequence (P43220 24-463): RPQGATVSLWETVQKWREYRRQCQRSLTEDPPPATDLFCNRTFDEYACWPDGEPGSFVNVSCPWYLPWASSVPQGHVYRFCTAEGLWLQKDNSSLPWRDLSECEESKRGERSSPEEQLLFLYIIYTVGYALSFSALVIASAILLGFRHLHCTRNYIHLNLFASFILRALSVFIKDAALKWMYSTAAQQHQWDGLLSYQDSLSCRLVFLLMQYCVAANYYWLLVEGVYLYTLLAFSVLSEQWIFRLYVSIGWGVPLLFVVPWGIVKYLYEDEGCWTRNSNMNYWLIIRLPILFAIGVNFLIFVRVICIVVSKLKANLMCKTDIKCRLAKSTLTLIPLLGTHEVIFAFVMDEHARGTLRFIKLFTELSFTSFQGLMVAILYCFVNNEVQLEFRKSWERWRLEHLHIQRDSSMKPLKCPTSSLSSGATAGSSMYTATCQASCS
Experiment: GLP-1R activation cAMP assay (Assay 1 or Assay 2)
Conditions: cAMP increase in CHO cells stably expressing GLP-1R; compounds run on one of the two cAMP assays
pEC50: −log10 of the molar value.
ASSAY_ENDPOINT: pEC50

{"columns": ["MOLECULE", "pEC50"],
 "data": [
  ["Cn1cc(C#Cc2cnc(COc3cccc(-c4cc(F)c(Cc5nc6ccc(C(=O)O)cc6n5C[C@@H]5CCO5)cc4F)n3)c(Cl)c2)cn1 [Example 302]", 9.25],
  ["O=C(O)c1ccc2nc(Cc3cc(F)c(-c4cccc(OCc5cnc(C(=O)NC6COC6)cc5F)n4)cc3F)n(C[C@@H]3CCO3)c2c1 [Example 247]", 9.60],
  ["O=C(O)c1cc(F)c2nc(Cc3cc(F)c(-c4ccnc(OCc5ncc(C(F)(F)F)s5)n4)cc3F)n(C[C@@H]3CCO3)c2c1 [Example 408]", 9.42],
  ["O=C(O)c1ccc2nc(Cc3cc(F)c(-c4cccc(OCc5cnc(C(=O)NC6CCC6)cc5F)n4)cc3F)n(C[C@@H]3CCO3)c2c1 [Example 246]", 9.24],
  ["N#Cc1csc(COc2cccc(-c3cc(F)c(Cc4nc5ccc(C(=O)O)cc5n4C[C@@H]4CCO4)cc3F)n2)n1 [Example 23]", 8.84]
]}

A: N#Cc1ccc(C#Cc2cnc(COc3cccc(-c4cc(F)c(Cc5nc6ccc(C(=O)O)cc6n5C[C@@H]5CCO5)cc4F)n3)s2)cc1 [Example 325]
B: CC(F)(F)c1cnc(COc2cccc(-c3cc(F)c(Cc4nc5c(F)cc(C(=O)O)cc5n4C[C@@H]4CCO4)cc3F)n2)s1 [Example 318]
Q. Of the pair A and B , name the member with the lesser recorded pEC50. State your choice using its label.
A. A

a: Cn1cc(C#Cc2cnc(COc3cccc(-c4cc(F)c(Cc5nc6ccc(C(=O)O)cc6n5C[C@@H]5CCO5)cc4F)n3)cn2)cn1 [Example 155]
b: COCCn1c(Cc2cc(F)c(-c3cccc(OCc4cn(-c5ccccc5)cn4)n3)cc2F)nc2ccc(C(=O)O)cc21 [Example 122]
c: CC1(C)COC[C@H]1n1c(Cc2cc(F)c(-c3ccc(F)c(OCc4ncc(Cl)s4)n3)cc2F)nc2ccc(C(=O)O)cc21 [Example 255]
Q. Order these by pEC50, descending, and give the full ranking. Sort and list the labels as requested.
A. c, a, b

a: COc1nnc(COc2cccc(-c3cc(F)c(Cc4nc5ccc(C(=O)O)cc5n4CC4(CF)CC4)c(F)c3F)n2)s1 [Example 271]
b: O=C(O)c1cc(F)c2nc(Cc3cc(F)c(-c4cccc(OCc5ncc(C(F)(F)F)s5)n4)cc3F)n(CC3(CF)CC3)c2c1 [Example 412]
c: O=C(O)c1ccc2nc(Cc3cc(F)c(-c4cccc(OCc5nc6ccccc6s5)n4)cc3F)n(C[C@@H]3CCO3)c2c1 [Example 34]
Q. With regard to pEC50, arrange the entries in ascending order, please. Sort and list the labels as requested.
A. a, c, b
